Assayed Target: UniProt Q53GL7
Sequence (Q53GL7 whole entry): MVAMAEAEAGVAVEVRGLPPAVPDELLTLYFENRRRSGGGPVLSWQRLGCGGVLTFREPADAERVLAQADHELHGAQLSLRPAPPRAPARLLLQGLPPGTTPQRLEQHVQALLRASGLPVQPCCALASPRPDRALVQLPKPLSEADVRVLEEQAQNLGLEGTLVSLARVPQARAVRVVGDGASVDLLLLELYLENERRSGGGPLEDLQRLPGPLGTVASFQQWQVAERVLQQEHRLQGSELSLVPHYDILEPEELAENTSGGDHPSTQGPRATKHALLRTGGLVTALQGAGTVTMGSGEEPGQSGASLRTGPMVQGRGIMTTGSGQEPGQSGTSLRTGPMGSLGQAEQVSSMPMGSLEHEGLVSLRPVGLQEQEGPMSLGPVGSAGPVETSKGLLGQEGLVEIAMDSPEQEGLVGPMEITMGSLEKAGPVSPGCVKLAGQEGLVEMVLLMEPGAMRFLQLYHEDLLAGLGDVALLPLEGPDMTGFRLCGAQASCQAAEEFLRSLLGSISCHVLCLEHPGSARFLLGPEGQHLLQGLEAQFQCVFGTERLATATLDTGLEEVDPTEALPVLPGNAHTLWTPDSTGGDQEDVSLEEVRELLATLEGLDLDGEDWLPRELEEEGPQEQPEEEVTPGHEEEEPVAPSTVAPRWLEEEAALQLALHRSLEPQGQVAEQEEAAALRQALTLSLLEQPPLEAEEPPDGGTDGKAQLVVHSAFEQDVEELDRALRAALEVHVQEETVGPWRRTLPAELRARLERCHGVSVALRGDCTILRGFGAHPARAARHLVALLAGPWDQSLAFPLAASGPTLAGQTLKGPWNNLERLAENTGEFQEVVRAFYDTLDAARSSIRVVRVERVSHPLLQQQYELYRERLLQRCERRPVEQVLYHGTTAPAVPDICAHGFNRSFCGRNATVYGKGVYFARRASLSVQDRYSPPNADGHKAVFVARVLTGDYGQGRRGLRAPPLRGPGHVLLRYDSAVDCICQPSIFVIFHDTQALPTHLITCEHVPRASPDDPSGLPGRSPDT
Below: compounds with pIC50 recorded for UniProt Q53GL7 in separate published works.
Answer as the number alone; pIC50 is minus log10 of concentration in mol/L.

Which pIC50 value belongs to Cc1c(-c2ccnc(C(F)(F)F)c2)ccc2c1CCNC2=O ?
5.74

Repeat for the following compound: O=C(c1cc(Cc2n[nH]c(=O)c3ccccc23)ccc1F)N1CCn2c(nnc2-c2ccc(Br)o2)C1
7.97

Repeat for the following compound: O=c1[nH][nH]c(=O)c2cc(OCC3CC3)ccc12
6.51

Repeat for the following compound: CC(=O)c1cccc(-c2ccc3c(c2)CCNC3=O)c1
5.80

Repeat for the following compound: NC(=O)c1ccc(OCC2CCC2)cc1
6.54

Repeat for the following compound: O=c1[nH][nH]c(=O)c2cc(OCC3CCCC3)ccc12
6.89

Repeat for the following compound: COc1ccc2c(c1)C(CC(=O)N1CCN(C(=O)c3ccccc3N3CCC(=O)NC3=O)CC1)CC2=O (stereo unspecified)
4.47

Repeat for the following compound: Cc1c(-c2cncc(C(F)(F)F)c2)ccc2c1CCNC2=O
5.57

Repeat for the following compound: NC(=O)c1ccc(OCC2CCC2)cc1F
6.21
